Data provenance: the supplement of paper PMC12764529

- assayInfo: folding stability dG unfold from chymotrypsin proteolysis; higher = more stable
Answer each item with its documented folding stability dG unfold.
One number for each entry, in kcal/mol.

Could you tell me which folding stability dG unfold is on file for SAGGSAGGSELSDEEIEALRKPPKVRIRVEIVYPDGTVEEREFSSLEEALAAAKERNVTVKILSAGGSAGGS [r12_244_TrROS_Hall] ? 1.76

Provide the reported folding stability dG unfold of each entry below, same order.
1. SAGGSMITFTVTPDATVEFPDGVTVTLIPGEGKWVATAGEKEIEAPYTPLPDDTYVVTLELPEGIAASAGGS [r16_245_JUSTAS]
2. DDNQEYEYENPGGMKMRVEYNPSTGNMKVEMEPVPPVPPIPPIMIPLDLTPEQANRLINELQDLGIPIMVGS [r1_242_TrROS]
3. SAGGSAGGMVTVPVPKDKPLNPVATVKLPDGSTIPAGPVAVDLEKGTATLEVPEPAEVIVEVNPSAGGSAGG [r6_180_JUSTAS]

-0.101
1.33
1.36
